Biological target: self-produced hTGase 2 (Homo sapiens, UniProt P21980)
Construct: thrombin cleavage site (N); made in house; host or cells: E. coli BL21(DE3)
Sequence (P21980 1-687): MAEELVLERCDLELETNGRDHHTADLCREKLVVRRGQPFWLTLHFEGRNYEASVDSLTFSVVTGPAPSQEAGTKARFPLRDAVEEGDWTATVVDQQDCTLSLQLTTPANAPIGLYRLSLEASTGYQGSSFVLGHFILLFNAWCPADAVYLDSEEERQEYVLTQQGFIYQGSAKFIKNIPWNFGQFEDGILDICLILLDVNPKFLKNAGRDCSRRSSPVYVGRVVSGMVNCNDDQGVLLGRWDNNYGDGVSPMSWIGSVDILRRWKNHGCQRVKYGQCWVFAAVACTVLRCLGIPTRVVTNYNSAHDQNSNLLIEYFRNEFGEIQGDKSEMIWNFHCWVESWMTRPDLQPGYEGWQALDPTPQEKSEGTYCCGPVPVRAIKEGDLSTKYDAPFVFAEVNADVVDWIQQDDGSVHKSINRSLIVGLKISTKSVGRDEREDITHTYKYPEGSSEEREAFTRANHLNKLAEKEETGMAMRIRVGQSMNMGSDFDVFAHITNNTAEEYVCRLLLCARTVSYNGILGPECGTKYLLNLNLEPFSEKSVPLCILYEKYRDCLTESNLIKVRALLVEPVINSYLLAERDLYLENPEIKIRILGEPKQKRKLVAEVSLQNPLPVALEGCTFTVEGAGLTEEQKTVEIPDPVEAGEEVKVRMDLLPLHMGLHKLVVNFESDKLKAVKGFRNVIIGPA
Assay: native GTP-PAGE with increasing concentrations of inhibitor, band quantification
Format: biochemical
Conditions: Gel A (w/o Mg^2+); 50 µM GTP in gel and buffer; 8.23 µM hTGase 2; read-out: IC50, portion of the fast-migrating (closed) species of monomeric hTGase 2 (Figure 8F)
Assay metric: IC50 (µM)
I only need the number, in µM, no unit after it.

Data request: Which value of IC50 has been reported for C=CC(=O)NCCCC[C@H](NC(=O)Cc1ccccc1I)C(=O)N1CCN(c2ccc([N+](=O)[O-])nc2)CC1 in the records?
Data returned: 5.28

====

biological target: commercial His6-hTGase 2 (Homo sapiens); construct: purchased Zedira (Darmstadt, Germany) T022, lot 0716a; assay: fluorescence anisotropy (FA)-based transamidase activity assay, commercial His6-hTGase 2; format: biochemical; settings: 5 min pre-incubation of enzyme and inhibitor; mean (SEM) of three experiments
For each of the molecules below, state its IC50.
I only need the number, in nM, no unit after it.

Data request: Which value of IC50 has been reported for C=CC(=O)NCCCC[C@H](NC(=O)Cc1ccccc1I)C(=O)N1CCN(c2ccc([N+](=O)[O-])nc2)CC1 in the records?
Data returned: 154

Data request: Try this molecule next: C=CC(=O)NCCCCC(NC(=O)Cc1ccccc1I)C(=O)N1CCN(c2ccc(C(F)(F)F)nc2)CC1 (centres unmarked)
Data returned: 280

====

Target: self-produced hTGase 2 (Homo sapiens)
Construct: thrombin cleavage site (N); made in house; host or cells: E. coli BL21(DE3)
Experiment: native GTP-PAGE with increasing concentrations of inhibitor, band quantification
Type: biochemical
Conditions: Gel B (with Mg^2+, 500 µM MgCl2); 50 µM GTP in gel and buffer; 8.23 µM hTGase 2; read-out: IC50, portion of the fast-migrating (closed) species of monomeric hTGase 2 (Figure 8F)
Procedure: Figure 8 Effect of increasing concentrations of inhibitor 2 on the activity and the conformation of hTGase 2. Native GTP-PAGE was performed on 7% separating gels. […] After electrophoretic separation, gels were stained with Coomassie Brilliant Blue G250, scanned, and the protein bands were quantified (Figure S7 in Supplementary Materials). […] The IC50 values in (D,F) were calculated by non-linear regression according to Equation (S29) in Supplementary Materials. […]
Assay metric: pIC50
Value format note: pIC50 is -log10 of concentration (mol/L); just state the number.

Data request: Which value of pIC50 has been reported for C=CC(=O)NCCCC[C@H](NC(=O)Cc1ccccc1I)C(=O)N1CCN(c2ccc([N+](=O)[O-])nc2)CC1 [Compound 2] in the records?
Data returned: 5.25

====

target: self-produced hTGase 2 (Homo sapiens, UniProt P21980); construct: thrombin cleavage site (N); made in house; host or cells: E. coli BL21(DE3); test: native GTP-PAGE with increasing concentrations of inhibitor, band quantification; assay type: biochemical; conditions: Gel B (with Mg^2+, 500 µM MgCl2); 50 µM GTP in gel and buffer; 8.23 µM hTGase 2; read-out: IC50, percentage of the oligomers' signal (Figure 8D)
Assay metric: pIC50
Value format note: pIC50 is -log10 of concentration (mol/L); just state the number.

Data request: Which value of pIC50 has been reported for C=CC(=O)NCCCC[C@H](NC(=O)Cc1ccccc1I)C(=O)N1CCN(c2ccc([N+](=O)[O-])nc2)CC1 [Compound 2] in the records?
Data returned: 5.24

====

Molecular target: commercial His6-hTGase 2 (Homo sapiens)
Construct: purchased Zedira (Darmstadt, Germany) T022, lot 0716a
Sequence (P21980 1-687): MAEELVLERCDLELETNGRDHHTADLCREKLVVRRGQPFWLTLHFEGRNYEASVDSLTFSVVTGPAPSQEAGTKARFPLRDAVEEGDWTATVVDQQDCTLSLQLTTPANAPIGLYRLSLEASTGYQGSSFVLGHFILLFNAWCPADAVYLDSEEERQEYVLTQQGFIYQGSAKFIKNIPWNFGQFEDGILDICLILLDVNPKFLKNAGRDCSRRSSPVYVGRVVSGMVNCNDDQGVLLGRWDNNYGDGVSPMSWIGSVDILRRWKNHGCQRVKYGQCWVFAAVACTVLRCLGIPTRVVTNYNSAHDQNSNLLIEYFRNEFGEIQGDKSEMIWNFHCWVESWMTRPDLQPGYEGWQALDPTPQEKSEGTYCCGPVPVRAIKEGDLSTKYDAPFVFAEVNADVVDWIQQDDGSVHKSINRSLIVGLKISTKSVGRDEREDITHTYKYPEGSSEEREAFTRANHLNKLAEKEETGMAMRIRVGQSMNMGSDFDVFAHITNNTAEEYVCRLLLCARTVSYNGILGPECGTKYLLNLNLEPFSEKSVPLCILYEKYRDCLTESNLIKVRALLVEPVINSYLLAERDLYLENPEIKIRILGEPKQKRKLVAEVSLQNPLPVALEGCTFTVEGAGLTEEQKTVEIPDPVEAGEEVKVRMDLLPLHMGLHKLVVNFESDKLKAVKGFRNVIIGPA
Test: fluorescence anisotropy (FA)-based transamidase activity assay, commercial His6-hTGase 2
Format: biochemical
Settings: 30 min pre-incubation; hTGase 2 (Zedira) 64.1 nM; mean (SEM)
Assay metric: IC50 (µM)
I only need the number, in µM, no unit after it.

Data request: Which value of IC50 has been reported for C=CC(=O)NCCCC[C@H](NC(=O)Cc1ccccc1I)C(=O)N1CCN(c2ccc([N+](=O)[O-])nc2)CC1 in the records?
Data returned: 0.0474

====

Biological target: in-house produced N-terminally Twin-Strep-tagged hTGase 2 (Homo sapiens)
Construct: thrombin cleavage site (N); made in house; host or cells: E. coli BL21(DE3)
Sequence (P21980 1-687): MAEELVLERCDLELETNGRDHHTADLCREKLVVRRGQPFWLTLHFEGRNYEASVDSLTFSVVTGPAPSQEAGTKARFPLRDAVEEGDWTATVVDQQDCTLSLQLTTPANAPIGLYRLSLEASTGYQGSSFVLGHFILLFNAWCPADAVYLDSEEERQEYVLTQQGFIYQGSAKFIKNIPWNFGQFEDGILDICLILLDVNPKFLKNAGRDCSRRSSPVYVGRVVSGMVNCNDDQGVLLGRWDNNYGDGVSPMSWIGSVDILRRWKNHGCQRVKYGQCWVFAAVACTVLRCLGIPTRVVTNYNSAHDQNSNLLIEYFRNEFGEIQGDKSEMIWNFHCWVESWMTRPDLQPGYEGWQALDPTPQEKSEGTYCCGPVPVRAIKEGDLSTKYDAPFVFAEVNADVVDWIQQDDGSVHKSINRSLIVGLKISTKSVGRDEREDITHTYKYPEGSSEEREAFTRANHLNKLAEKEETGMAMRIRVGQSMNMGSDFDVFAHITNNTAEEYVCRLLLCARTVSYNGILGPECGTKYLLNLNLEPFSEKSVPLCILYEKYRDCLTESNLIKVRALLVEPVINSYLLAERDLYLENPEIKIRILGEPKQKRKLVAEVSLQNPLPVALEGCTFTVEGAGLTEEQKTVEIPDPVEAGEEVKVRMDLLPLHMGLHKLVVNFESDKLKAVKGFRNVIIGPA
Test: fluorescence anisotropy (FA)-based transamidase activity assay, in-house Twin-Strep-tagged hTGase 2
Assay type: biochemical
Details: 30 min pre-incubation; hTGase 2 (in-house) 61.6 nM; mean (SEM)
Assay metric: pIC50
Value format note: pIC50 is -log10 of concentration (mol/L); just state the number.

Data request: Which value of pIC50 has been reported for C=CC(=O)NCCCC[C@H](NC(=O)Cc1ccccc1I)C(=O)N1CCN(c2ccc([N+](=O)[O-])nc2)CC1 in the records?
Data returned: 7.45

The measured values listed here are drawn from paper PMC9865645.
